Where do these numbers come from? They come from paper PMC11356873.

Field: % Interaction with DPPH. Provide a value for each of the molecules that follow.
# Assay Summary: Interaction with the stable free radical DPPH
# Assay Conditions: compound 25 μΜ, DPPH 200 μΜ, after 30 min of incubation
Give bare numbers, in %.

Record excerpt, results attached:
COC(=O)CCCNC(=O)C1CCCN1C(=O)/C=C/c1cc(OC)c(O)c(OC)c1 (stereo not shown) = 17
COC(=O)CCCNC(=O)C1CCCN1C(=O)C1(C)CCc2c(C)c(O)c(C)c(C)c2O1 (stereo not shown) = 28
Cc1c(C)c2c(c(C)c1O)CCC(C)(C(=O)O)O2 (stereo not shown) = 19

The record that follows has no % Interaction with DPPH shown yet.
Find the recorded % Interaction with DPPH belonging to COC(=O)CCCNC(=O)C1CCCN1C(=O)/C=C/c1ccc(O)c(OC)c1 (stereo not shown) and report it. 10
